# assayExplanation: Cytotoxicity against human HepG2 cells assessed as reduction in cell proliferation treated for 24 hrs by crystal violet staining based analysis
# Assay type: toxicity
Let's look at some compounds and their measured CC50 at 24 h.

Some entries whose results are on file:
- C[n+]1nn(-c2ccc(-c3nc(-c4ccc(Oc5ccccc5)cc4)c(-c4ccccc4)s3)c(OCCN3CCNC3=O)c2)cc1CCCCN: > 75 µM
- CC[n+]1nn(-c2ccc(-c3nc(CCc4ccc(-c5ccccc5)cc4)cs3)c(OCCN3CCNC3=O)c2)cc1CCCCN: > 75 µM
- C[n+]1nn(-c2ccc(-c3nc(CCc4ccc(-c5ccccc5)cc4)cs3)c(OCCN3CCNC3=O)c2)cc1CCCCN.O=C(O)C(F)(F)F.O=S(=O)([O-])C(F)(F)F: > 75 µM
- C[n+]1nn(-c2ccc(-c3nc(CCc4ccc(Oc5ccccc5)cc4)c(-c4ccccc4)s3)c(OCCN3CCNC3=O)c2)cc1CCCCN: 35.2 µM
- C[n+]1nn(-c2ccc(-c3nc(-c4ccc(-c5ccccc5)cc4)c(-c4ccccc4)s3)c(OCCN3CCNC3=O)c2)cc1CCCCN: > 75 µM
- COc1cc(-n2cc(CCCCN)[n+](C)n2)ccc1-c1nc(CCc2ccccc2)cs1: > 75 µM
- COc1cc(-n2cc(CCCCN)[n+](C)n2)ccc1-c1nc(CCc2ccc(-c3ccccc3)cc2)cs1: 35.9 µM
- C[n+]1nn(-c2ccc(-c3nc(CCc4ccc(-c5ccccc5)cc4)c(-c4ccccc4)s3)c(OCCN3CCNC3=O)c2)cc1CCCCN: 46.5 µM

Identify CC50 at 24 h associated with the compound C[n+]1nn(-c2ccc(-c3nc(CCc4ccccc4)cs3)c(OCCN3CCNC3=O)c2)cc1CCCN
> 75 µM

Identify CC50 at 24 h associated with the compound C[n+]1nn(-c2ccc(-c3nc(CCc4ccccc4)cs3)c(OCC3CCNCC3)c2)cc1CCCCN
> 75 µM

Identify CC50 at 24 h associated with the compound C[n+]1nn(-c2ccc(-c3nc(-c4ccccc4)c(-c4ccccc4)s3)c(OCCN3CCNC3=O)c2)cc1CCCCN
> 75 µM

Identify CC50 at 24 h associated with the compound C[n+]1nn(-c2ccc(-c3nc(-c4ccccc4)cs3)c(OCCN3CCNC3=O)c2)cc1CCCCN
> 75 µM

Identify CC50 at 24 h associated with the compound C[n+]1nn(-c2ccc(-c3nc(CCc4ccccc4)cs3)c(OCCC3CCNCC3)c2)cc1CCCCN
> 75 µM

Identify CC50 at 24 h associated with the compound C[n+]1nn(-c2ccc(-c3nc(CCC4Cc5ccccc5O4)cs3)c(OCCN3CCNC3=O)c2)cc1CCCCN (configuration not stated)
> 75 µM

Identify CC50 at 24 h associated with the compound C[n+]1nn(-c2ccc(-c3nc(CCc4ccc5ccccc5c4)cs3)c(OCCN3CCNC3=O)c2)cc1CCCCN.O=C(O)C(F)(F)F.O=S(=O)([O-])C(F)(F)F
> 75 µM

Identify CC50 at 24 h associated with the compound C[n+]1nn(-c2ccc(-c3nc(CCc4ccc(-c5ccccc5)cc4)cs3)c(OCCN3CCNC3=O)c2)cc1CCCN.O=C(O)C(F)(F)F.O=S(=O)([O-])C(F)(F)F
> 75 µM

Identify CC50 at 24 h associated with the compound C[n+]1nn(-c2ccc(-c3nc(CCc4ccccc4)cs3)c(OCCN3CCNC3=O)c2)cc1CCCCN.O=C(O)C(F)(F)F.O=S(=O)([O-])C(F)(F)F
> 75 µM
